SYSTEM TESTED: rat FAS (Rattus norvegicus, UniProt P12785)
Construct: The clarified supernatant was fractionated by ammonium sulfate precipitation; from tissue; host or cells: rat liver (fasted and high carbohydrate re-fed rats)
Sequence (P12785 whole entry): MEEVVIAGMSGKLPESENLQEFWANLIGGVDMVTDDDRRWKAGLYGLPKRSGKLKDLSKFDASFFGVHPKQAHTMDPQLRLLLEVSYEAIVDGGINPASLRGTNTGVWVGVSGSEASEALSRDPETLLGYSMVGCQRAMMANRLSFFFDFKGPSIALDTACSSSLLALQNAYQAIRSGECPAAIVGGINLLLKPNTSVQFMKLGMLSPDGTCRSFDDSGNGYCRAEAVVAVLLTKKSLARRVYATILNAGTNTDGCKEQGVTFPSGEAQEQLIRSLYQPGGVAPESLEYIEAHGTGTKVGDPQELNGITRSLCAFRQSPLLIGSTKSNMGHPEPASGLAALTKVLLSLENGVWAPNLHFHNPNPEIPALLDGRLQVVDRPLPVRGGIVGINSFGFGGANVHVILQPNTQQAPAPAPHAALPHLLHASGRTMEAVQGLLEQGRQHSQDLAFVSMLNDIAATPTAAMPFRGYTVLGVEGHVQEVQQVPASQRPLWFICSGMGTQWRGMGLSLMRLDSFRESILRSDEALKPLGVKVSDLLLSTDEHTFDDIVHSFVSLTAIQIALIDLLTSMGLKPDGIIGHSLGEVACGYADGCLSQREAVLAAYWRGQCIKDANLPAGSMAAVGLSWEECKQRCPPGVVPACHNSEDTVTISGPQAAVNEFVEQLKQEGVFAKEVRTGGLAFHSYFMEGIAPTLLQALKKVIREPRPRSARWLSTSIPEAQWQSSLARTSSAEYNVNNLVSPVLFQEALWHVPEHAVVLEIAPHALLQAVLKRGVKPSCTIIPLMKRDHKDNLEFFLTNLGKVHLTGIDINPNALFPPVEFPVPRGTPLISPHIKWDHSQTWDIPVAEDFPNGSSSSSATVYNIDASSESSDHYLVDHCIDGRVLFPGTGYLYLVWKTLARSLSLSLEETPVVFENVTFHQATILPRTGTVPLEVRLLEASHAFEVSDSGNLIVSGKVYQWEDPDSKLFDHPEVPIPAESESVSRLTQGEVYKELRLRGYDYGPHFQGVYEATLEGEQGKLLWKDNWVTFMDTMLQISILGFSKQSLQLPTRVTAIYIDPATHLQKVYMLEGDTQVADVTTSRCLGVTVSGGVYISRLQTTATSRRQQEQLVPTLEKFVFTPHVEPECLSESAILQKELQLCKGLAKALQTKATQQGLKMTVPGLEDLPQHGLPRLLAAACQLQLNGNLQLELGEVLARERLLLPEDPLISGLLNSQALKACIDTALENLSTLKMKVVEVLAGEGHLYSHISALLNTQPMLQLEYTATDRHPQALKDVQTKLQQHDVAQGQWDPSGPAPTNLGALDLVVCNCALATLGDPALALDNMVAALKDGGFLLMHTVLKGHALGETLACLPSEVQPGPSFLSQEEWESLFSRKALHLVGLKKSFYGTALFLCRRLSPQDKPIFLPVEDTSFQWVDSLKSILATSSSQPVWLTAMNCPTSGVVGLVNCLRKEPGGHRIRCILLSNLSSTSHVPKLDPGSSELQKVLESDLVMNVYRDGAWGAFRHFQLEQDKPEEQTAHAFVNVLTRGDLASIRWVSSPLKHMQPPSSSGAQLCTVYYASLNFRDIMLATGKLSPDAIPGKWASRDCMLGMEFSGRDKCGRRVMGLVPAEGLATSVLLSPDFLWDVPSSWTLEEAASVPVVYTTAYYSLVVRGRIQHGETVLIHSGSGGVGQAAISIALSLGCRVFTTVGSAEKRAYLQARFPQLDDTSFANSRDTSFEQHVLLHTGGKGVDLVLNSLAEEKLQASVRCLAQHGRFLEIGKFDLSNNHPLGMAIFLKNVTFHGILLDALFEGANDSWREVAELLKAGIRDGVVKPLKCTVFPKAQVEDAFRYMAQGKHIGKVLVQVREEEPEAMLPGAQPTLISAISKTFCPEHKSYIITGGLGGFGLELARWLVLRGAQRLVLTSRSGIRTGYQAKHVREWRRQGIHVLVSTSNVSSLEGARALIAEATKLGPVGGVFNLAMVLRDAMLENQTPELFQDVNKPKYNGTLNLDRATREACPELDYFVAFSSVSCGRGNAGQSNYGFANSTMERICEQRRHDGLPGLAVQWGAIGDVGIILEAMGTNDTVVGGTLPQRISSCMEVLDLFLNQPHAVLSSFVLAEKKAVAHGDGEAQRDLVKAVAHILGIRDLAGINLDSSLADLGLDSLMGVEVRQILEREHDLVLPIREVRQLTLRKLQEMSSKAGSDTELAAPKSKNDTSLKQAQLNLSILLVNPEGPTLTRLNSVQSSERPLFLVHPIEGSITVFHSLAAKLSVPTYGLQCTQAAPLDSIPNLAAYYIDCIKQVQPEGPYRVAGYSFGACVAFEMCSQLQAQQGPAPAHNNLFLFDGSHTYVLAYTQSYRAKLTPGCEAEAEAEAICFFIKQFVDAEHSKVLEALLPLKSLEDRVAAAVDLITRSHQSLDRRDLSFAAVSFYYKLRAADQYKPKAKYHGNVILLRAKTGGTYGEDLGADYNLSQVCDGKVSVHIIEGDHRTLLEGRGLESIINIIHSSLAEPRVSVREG
MEASUREMENT PROTOCOL: FAS inhibitory activity in cell free Flashplate assay (formation of 3H-palmitate), rat FAS
Type: biochemical
MEASUREMENT CONTEXT: rat liver FAS, cell free flash plate assay
MEASUREMENT KIND: IC50 (µM)
Report only the number, with the unit µM understood.

Lookup: Quick one: IC50 of C[C@]12C[C@@]34C=CC(=O)[C@@](C)(CCC(=O)Nc5c(O)ccc(C(=O)O)c5O)C3[C@H](CC1C4)O2 (stereo partly shown) [Formula I, platensimycin] ?
Found: 0.18
